Cited source: ChEMBL document CHEMBL3352008

Task for the reader: assign each of the following compounds its reported Ki.
biological target: Muscarinic acetylcholine receptor M2 (Homo sapiens, UniProt P08172, Y104A); assay: Displacement of [3H]-NMS from human muscarinic M2 Y104A mutant expressed in Flp-In-CHO cells by liquid scintillation counting
Sequence (P08172 whole entry Y104A): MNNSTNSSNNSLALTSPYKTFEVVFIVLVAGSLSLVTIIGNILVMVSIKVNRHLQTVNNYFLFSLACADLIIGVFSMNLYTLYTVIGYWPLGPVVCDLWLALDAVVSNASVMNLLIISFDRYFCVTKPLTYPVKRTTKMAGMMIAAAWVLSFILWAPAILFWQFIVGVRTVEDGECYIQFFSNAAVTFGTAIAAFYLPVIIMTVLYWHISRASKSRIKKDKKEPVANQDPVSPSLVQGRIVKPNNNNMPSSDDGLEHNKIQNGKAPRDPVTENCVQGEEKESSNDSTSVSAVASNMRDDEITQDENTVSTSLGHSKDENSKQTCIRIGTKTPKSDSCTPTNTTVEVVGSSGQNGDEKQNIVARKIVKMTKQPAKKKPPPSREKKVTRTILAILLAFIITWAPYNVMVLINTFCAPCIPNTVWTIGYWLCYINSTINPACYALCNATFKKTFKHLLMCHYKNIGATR

# return recorded Ki for entry CC(C)(CN1C(=O)c2cccc3cccc(c23)C1=O)C[N+](C)(C)CCCCCC[N+]1(C)[C@@H]2C[C@H](OC(=O)[C@H](CO)c3ccccc3)C[C@H]1[C@@H]1O[C@@H]12 (some centres not stated) 132 nM

# return recorded Ki for entry C[N+](C)(C)CCCCCC[N+](C)(C)CC#CCOC1=NOCC1 1290 nM

# return recorded Ki for entry CC(C)(CN1C(=O)c2cccc3cccc(c23)C1=O)C[N+](C)(C)CCCCCC[N+](C)(C)CC#CCOC1=NOCC1 14.5 nM

# return recorded Ki for entry C[N+]1(C)[C@@H]2CC[C@@H]1CC(OC(=O)C(CO)c1ccccc1)C2 (some centres not stated) 11 nM

# return recorded Ki for entry C[N+](C)(C)CCCCCC[N+]1(C)[C@@H]2CC[C@@H]1CC(OC(=O)C(CO)c1ccccc1)C2 (relative stereo) 151 nM

# return recorded Ki for entry CC(C)(CN1C(=O)c2cccc3cccc(c23)C1=O)C[N+](C)(C)CCCCCC[N+]1(C)[C@@H]2CC[C@@H]1CC(OC(=O)C(CO)c1ccccc1)C2 (relative stereo) 61.7 nM

# return recorded Ki for entry C[N+](C)(CC#CCOC1=NOCC1)CCCCCC[N+](C)(C)CCCN1C(=O)c2ccccc2C1=O 204 nM

----------
biological target: Muscarinic acetylcholine receptor M2 (Homo sapiens, UniProt P08172, W422A); assay: Displacement of [3H]-NMS from human muscarinic M2 W422A mutant expressed in Flp-In-CHO cells by liquid scintillation counting
Sequence (P08172 whole entry W422A): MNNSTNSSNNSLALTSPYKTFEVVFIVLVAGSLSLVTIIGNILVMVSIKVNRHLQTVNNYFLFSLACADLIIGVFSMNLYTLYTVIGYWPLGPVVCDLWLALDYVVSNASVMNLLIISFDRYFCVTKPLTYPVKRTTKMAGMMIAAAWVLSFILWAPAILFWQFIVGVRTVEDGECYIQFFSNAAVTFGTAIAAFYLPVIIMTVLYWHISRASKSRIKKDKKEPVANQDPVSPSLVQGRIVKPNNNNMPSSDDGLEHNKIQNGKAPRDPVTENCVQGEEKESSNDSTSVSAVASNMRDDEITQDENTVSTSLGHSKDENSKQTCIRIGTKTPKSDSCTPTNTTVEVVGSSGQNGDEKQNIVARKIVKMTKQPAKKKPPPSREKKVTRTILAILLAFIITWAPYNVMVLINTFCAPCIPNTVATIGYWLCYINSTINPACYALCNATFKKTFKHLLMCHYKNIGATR
Task for the reader: assign each of the following compounds its reported Ki.
Answer with the value and then the unit.

# return recorded Ki for entry CC(C)(CN1C(=O)c2cccc3cccc(c23)C1=O)C[N+](C)(C)CCCCCC[N+](C)(C)CC#CCOC1=NOCC1 19.5 nM

# return recorded Ki for entry C[N+](C)(C)CCCCCC[N+]1(C)[C@@H]2C[C@H](OC(=O)[C@H](CO)c3ccccc3)C[C@H]1[C@@H]1O[C@@H]12 (stereo partly drawn) 40.7 nM

# return recorded Ki for entry CC(C)(CN1C(=O)c2cccc3cccc(c23)C1=O)C[N+](C)(C)CCCCCC[N+]1(C)[C@@H]2C[C@H](OC(=O)[C@H](CO)c3ccccc3)C[C@H]1[C@@H]1O[C@@H]12 (stereo partly drawn) 6.46 nM
